The reported measurements were obtained from paper PMC7737538.

experiment: in vitro; details: human
parameter: CC50 (µM)
Unit µM implied. Number only.

{"compound_structure": "Nc1nc(O)c2ncn(COC(CO)CO)c2n1", "value_reported": 231}

Exam item: What value of CC50 has been reported for the following molecule? Nc1ccn(C[C@@H](CO)OCP(=O)(O)O)c(=O)n1
Marked response: 150
